Where these numbers come from: patent US20080182798A1

- test-system: dipeptidyl peptidase IV (Homo sapiens, UniProt P27487)
- Sequence (P27487 whole entry, species assumed): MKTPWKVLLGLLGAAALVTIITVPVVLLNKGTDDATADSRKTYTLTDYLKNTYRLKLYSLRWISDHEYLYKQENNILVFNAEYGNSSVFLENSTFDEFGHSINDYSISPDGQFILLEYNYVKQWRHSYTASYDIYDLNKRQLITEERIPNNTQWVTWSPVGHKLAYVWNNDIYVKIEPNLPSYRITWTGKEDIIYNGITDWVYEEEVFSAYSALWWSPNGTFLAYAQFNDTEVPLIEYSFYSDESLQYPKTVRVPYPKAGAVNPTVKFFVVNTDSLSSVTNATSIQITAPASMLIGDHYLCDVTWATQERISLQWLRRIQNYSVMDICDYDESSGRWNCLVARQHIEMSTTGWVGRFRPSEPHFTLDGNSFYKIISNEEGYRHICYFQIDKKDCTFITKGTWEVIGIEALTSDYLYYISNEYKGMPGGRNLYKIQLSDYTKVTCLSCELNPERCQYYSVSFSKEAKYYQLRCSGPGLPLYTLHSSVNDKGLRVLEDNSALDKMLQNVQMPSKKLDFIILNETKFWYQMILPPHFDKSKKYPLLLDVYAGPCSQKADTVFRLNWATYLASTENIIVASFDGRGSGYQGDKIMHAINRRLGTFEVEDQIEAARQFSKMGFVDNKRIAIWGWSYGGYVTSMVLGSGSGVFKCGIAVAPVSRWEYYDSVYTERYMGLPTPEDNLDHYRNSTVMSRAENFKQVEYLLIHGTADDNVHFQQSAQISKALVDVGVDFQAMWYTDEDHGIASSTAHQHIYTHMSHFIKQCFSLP
- method: Action of effectors on the DP IV-catalysed hydrolysis of H-Gly-Pro-pNA
- Format: biochemical
- reported-conditions: 10 μM effector; 0.4 mM H-Gly-Pro-pNA, 30° C., pH 7.6, ionic strength 0.125; read-out: % Residual activity of DP IV in the presence of 10 μM effector
parameter-measured: remaining activity at 10 µM (%)
One number for each entry, in %.

A selection of reference data follows.
Query block: Please report the recorded remaining activity at 10 µM for NC(CC(=O)O)C(=O)N1CCSC1 (centres unmarked) [H-Asp-thiazolidide] .
Result block: 45.6

Query block: Please report the recorded remaining activity at 10 µM for NC(Cc1c[nH]cn1)C(=O)N1CCCC1 (centres unmarked) [H-His-pyrrolidide] .
Result block: 49.7

Query block: Please report the recorded remaining activity at 10 µM for CC(C)C(N)C(=O)N1CCSC1 (centres unmarked) [H-Val-thiazolidide] .
Result block: 13.6

Query block: Please report the recorded remaining activity at 10 µM for NC(CC(=O)O)C(=O)N1CCCC1 (centres unmarked) [H-Asp-pyrrolidide] .
Result block: 81.6

Query block: Please report the recorded remaining activity at 10 µM for NC(=O)CC(N)C(=O)N1CCCC1 (centres unmarked) [H-Asn-pyrrolidide] .
Result block: 83.1

Query block: Please report the recorded remaining activity at 10 µM for NC(CC(=O)NO)C(=O)N1CCSC1 (centres unmarked) [H-Asp(NHOH)-thiazolidide] .
Result block: 54.5

Can you give me remaining activity at 10 µM for all of these, one by one?
1. C[C@H]1O[C@H](O[C@H]2[C@H](O)[C@@H](O)[C@@H](O[C@H]3[C@H](O)[C@@H](O)C(O)O[C@@H]3CO)O[C@@H]2CO)[C@H](O)[C@@H](O)[C@@H]1N[C@H]1C=C(CO)[C@@H](O)[C@H](O)[C@H]1O (some centres unmarked) [acarbose, reference compound]
2. NC(CCC(=O)NO)C(=O)N1CCSC1 (centres unmarked) [H-Glu(NHOH)-thiazolidide]

Result block:
1. 100
2. 36.5
